# Test system: A549 NSCLC
# METHOD_DESCRIPTION: NCI tumour cell line growth inhibition, 48 h
OBSERVATION_TYPE: TGI (µM)
Please respond with the number in µM and leave the unit unwritten.

Examples from the recorded data:
[[record]]
compound = "CS(=O)(=O)OCCN(CCOS(C)(=O)=O)c1ccc(C=Nc2ccc3oc(=O)ccc3c2)cc1"
observed = 35.3

[[record]]
compound = "O=C1C(Cl)=C(Nc2cccc(C(F)(F)F)c2)C(=O)N1Cc1ccccc1Cl"
observed = 27.5

[[record]]
compound = "COc1cc2nc(-c3ccc(-n4cncc4-c4ccc(N)cc4)cc3)sc2c(OC)c1OC"
observed = 32.5


Reported TGI of CCCCCCCCCCCCOC1C(C(COC2OC(C(O)CN3CCCCC3)C3OC(C)(C)OC23)NC(=O)Nc2ccccc2)OC2OC(C)(C)OC21 (stereo not given) : 38

====

# Test system: LOX IMVI melanoma
# METHOD_DESCRIPTION: NCI tumour cell line growth inhibition, 48 h
OBSERVATION_TYPE: TGI (nM)
Expressed in nM, but write only the number.

[[record]]
compound = "C[C@H]1CCC/C=C/[C@@H]2C[C@H](O)C[C@H]2[C@H](O)[C@@H](S(=O)CCN)CC(=O)O1 (stereo not given in full)"
observation_type = "TGI"
observed = 101


Now for another entry.
For CCn1c(-c2nonc2N)nc2c(C#CC(C)(C)O)nc(O[C@@H](CN)c3ccccc3)cc21 the compound record lists TGI as 1320

====

# Tested on: SK-MEL-28 melanoma
# METHOD_DESCRIPTION: NCI tumour cell line growth inhibition, 48 h
Entries and their TGI values follow.

[[record]]
compound = "CCCCN(CCCC)CC(C)(C)C(O)c1ccc(OC)c2ccccc12 (stereo not given)"
observed = "24.8 µM"

[[record]]
compound = "CC1=NN2C(=O)CC(=O)N=C2S1"
observed = "> 100 µM"

[[record]]
compound = "CC(C)CC(CNC(Cc1ccc(Cl)cc1)C(N)=O)NC(=O)C(Cc1cnc[nH]1)NC(=O)CNC(=O)C(NC(=O)C(C)NC(=O)C(Cc1c[nH]c2ccccc12)NC(=O)C(CCC(=O)O)NC(=O)C(N)Cc1ccccc1)C(C)C (stereo not given)"
observed = "> 133 µM"

[[record]]
compound = "COc1cccc(-c2cccc(SC)n2)n1"
observed = "> 100 µM"

[[record]]
compound = "CCn1c(-c2nonc2N)nc2c(C#CC(C)(C)O)nc(O[C@@H](CN)c3ccccc3)cc21"
observed = "1.19 µM"


Field TGI (system: SK-MEL-28 melanoma) for entry COc1cc(C2CC(c3ccc4c(c3)OCO4)=NN2C(C)=O)cc(OC)c1OC (stereo not given) = > 100 µM

Recorded TGI for CN(C)c1nc(N(C)C)n2nc(-c3ccccc3[N+](=O)[O-])nc2n1 on SK-MEL-28 melanoma was > 100 µM

Entry C[C@]12CC(c3ccccc3O1)C(C#N)C(=O)N2 (stereo not given in full) , tested on SK-MEL-28 melanoma, has a reported TGI of > 100 µM

Record O=C1NC(=O)C2(CCC(O)C2)c2cc[n+]([O-])cc21 (stereo not given) / SK-MEL-28 melanoma, TGI recorded as > 100 µM

Form field, TGI with SK-MEL-28 melanoma, item O=C1OC(c2ccccc2)=N/C1=C\c1c(O)cc(O)cc1O : > 100 µM

SK-MEL-28 melanoma assay, compound O=C1C(Cl)=C(Nc2cccc(C(F)(F)F)c2)C(=O)N1Cc1ccccc1Cl , recorded TGI = 26.9 µM

The compound COc1cc(-c2nn(C(=O)NS(=O)(=O)c3ccc(C)cc3)cc2-c2ccncc2)ccc1Cl on SK-MEL-28 melanoma: TGI was 13.1 µM

Let me check: COc1ccc(-c2onc(-c3c(C)cc(C)cc3C)c2C2=NCCCN2)cc1 , system SK-MEL-28 melanoma, measured TGI is > 100 µM

Recorded TGI for CC[C@@H](C)[C@H]([C@H](CC(=O)N1CCC[C@@H]1[C@@H](OC)[C@H](C)C(=O)N[C@H](Cc1ccccc1)c1nccs1)OC)N(C)C(=O)[C@H](NC(=O)[C@@H](C(C)C)N(C)C)C(C)C on SK-MEL-28 melanoma was > 100 µM

Bench note, SK-MEL-28 melanoma: CCOC(=O)c1c(C)n(CC(C)C)c2c1cc1oc(=O)c(=O)n3cnc2c13 , TGI reads > 50 µM

C=C1C(=O)O[C@H]2[C@H]1[C@H](OC(=O)/C(C)=C\C)C[C@]1(CO1)[C@@H]1[C@H](OC(C)=O)C=C(C)[C@]21O on SK-MEL-28 melanoma gives TGI = 30.6 µM

I looked up Cn1c(=O)c2c(nc(C[N+]3([O-])CCOCC3)n2C)n(C)c1=O and its TGI for SK-MEL-28 melanoma was > 100 µM

Readout TGI for c1ccc([C@@H]2N[C@@]3(CO[Si](c4ccccc4)(c4ccccc4)c4ccccc4)CC[C@H]4CN[C@@H]2[C@H]43)cc1 , test system SK-MEL-28 melanoma, was 35.6 µM

Note to self: TGI of C[C@@]1(c2ncncc2F)NC(=O)c2cc(-c3cn[nH]c3)ccc21 with SK-MEL-28 melanoma was 73.4 µM

Lab entry: SK-MEL-28 melanoma assay, compound CCN(CC)CCCCCOc1cc(O)c2c(=O)cc(-c3ccccc3)oc2c1 , TGI = 3.07 µM

Known value: SK-MEL-28 melanoma TGI of the compound COc1ccc(CCNCc2cccc(OC)c2OC)cc1OC equals > 100 µM

Known value: SK-MEL-28 melanoma TGI of the compound CS(=O)(=O)OCCN(CCOS(C)(=O)=O)c1ccc(C=Nc2ccc3oc(=O)ccc3c2)cc1 equals 64.4 µM

Record for COc1ccc(C2C(c3ccccc3)C(=O)N2c2cc(OC)c(OC)c(OC)c2)cc1I (stereo not given) under target or system SK-MEL-28 melanoma: TGI reported as > 100 µM

The compound O=C1Nc2ccccc2[C@]12C[C@H]2c1ccccn1 , when measured on SK-MEL-28 melanoma, yielded TGI of > 100 µM

CC(=O)c1c(O)ccc2c1CC(CC=O)O2 (stereo not given) on SK-MEL-28 melanoma gives TGI = > 100 µM

Entry O=C1C(Cl)C(c2ccc(Cl)cc2)N1n1cnc2ccccc2c1=O (stereo not given) ; assay system SK-MEL-28 melanoma; TGI recorded at > 100 µM

Entry COc1ccc(NC(=O)c2sc3nc(C)c(C(O)c4ccc(OC)cc4)cc3c2N)cc1 (stereo not given) ; assay system SK-MEL-28 melanoma; TGI recorded at > 50 µM

Item CN1CCN(Cc2ccc(NC(=O)c3[nH]ncc3Nc3ncnc4sccc34)cc2)CC1 ; assay system SK-MEL-28 melanoma; TGI reported as > 100 µM

# TGI measured on SK-MEL-28 melanoma for item CCCCSC1=N/C(=C\c2ccco2)C(=O)N1 = > 100 µM
